Taken from paper PMC10452110.

Entries and their Dox/P. a: concentration required to restore doxycycline activity (combination MIC) values follow.
- System: P. aeruginosa ATCC 27853
- assay_procedure: Enhancement of doxycycline action against P. aeruginosa
- Format: cell-based, Pseudomonas aeruginosa
- stated_conditions: doxycycline at 4.5 µM

molecule: COc1cccc2c(CC(=O)NCCCNCCCCCCCCNCCCNC(=O)Cc3c[nH]c4c(OC)cccc34)c[nH]c12.O=C(O)C(F)(F)F.O=C(O)C(F)(F)F [Compound 19d]
endpoint_result: > 232 µM

query: Data request, read-out Dox/P. a: concentration required to restore doxycycline activity (combination MIC), for O=C(Cc1c[nH]c2c(F)cccc12)NCCCNCCCCCCCCNCCCNC(=O)Cc1c[nH]c2c(F)cccc12.O=C(O)C(F)(F)F.O=C(O)C(F)(F)F [Compound 18d]
result: > 239 µM

query: Try COc1cccc2c(CC(=O)NCCCNCCCCNCCCNC(=O)Cc3c[nH]c4c(OC)cccc34)c[nH]c12.O=C(O)C(F)(F)F.O=C(O)C(F)(F)F [Compound 19a] next.
result: > 249 µM
